// data source = patent US20220317138A1

Exercise: state measured Accuracy Replicate 4 for each of the compounds provided.
# Target Of Assay: beta-lactamase class D OXA-48 (Klebsiella pneumoniae)
# Assay type: biochemical
# Condition Parameters: Meropenem 1.2 mg/L, second β-lactam 10.0 mg/L (8.4 times excess), replicate 4
# Description: The specificity (or selectivity) of the method according to an embodiment of the invention is defined as the ability of the method to measure the concentration of a carbapenem antibiotic (such as meropenem) in presence of an excess of another beta-lactam antibiotic (second beta-lactam) currently used in ICUs (see Table 4). […]
Returns: string containing the number followed by the unit.

Give recorded Accuracy Replicate 4. CC(C)(O/N=C(\C(=O)N[C@@H]1C(=O)N2C(C(=O)[O-])=C(C[n+]3ccccc3)CS[C@H]12)c1csc(N)n1)C(=O)O [Ceftazidime] 112%

Give recorded Accuracy Replicate 4. CO/N=C(\C(=O)N[C@@H]1C(=O)N2C(C(=O)O)=C(COC(N)=O)CS[C@H]12)c1ccco1 [Zinacef ®] 104%

Give recorded Accuracy Replicate 4. CO/N=C(\C(=O)N[C@@H]1C(=O)N2C(C(=O)O)=C(CSc3nc(=O)c(O)nn3C)CS[C@H]12)c1csc(N)n1 [Ceftria ®] 116%

Give recorded Accuracy Replicate 4. Cc1onc(-c2ccccc2)c1C(=O)N[C@@H]1C(=O)N2[C@@H]1SC(C)(C)[C@@H]2C(=O)O [Penstapho ®] 122%

---

Exercise: state measured [meropenem] (mg/L) Replicates 2 for each of the compounds provided.
# Target Of Assay: beta-lactamase class D OXA-48 (Klebsiella pneumoniae)
# Format: biochemical
Numbered stars: 1 amine (or outer) side, 2 acyl side, 3 side chain; on linkers, the order of the positions; unused ones are H or OH. Bridge positions count the residues as written; N and C are the ends. Square brackets hold non-standard residues; d marks the D form. Peptide text beside a SMILES is read from it. * marks the point of attachment. pTerphenylCO(4''-OnC5H11) = CCCCCOc1ccc(-c2ccc(-c3ccc(C(=O)*)cc3)cc2)cc1; Orn(4R-OH,5R-OH) = O=C([C@H](C[C@@H](O)[C@@H](O)N[*:3])N[*:1])[*:2]; hTyr(3S-OH,4S-OH) = N[C@H](C(=O)O)[C@H](O)[C@@H](O)c1ccc(O)cc1; Pro(3S-OH,4S-Me) = C[C@H]1CN[C@H](C(=O)O)[C@H]1O; Hyp = O=C(O)[C@@H]1C[C@@H](O)CN1
Just the number in mg/L, nothing appended.

Give recorded [meropenem] (mg/L) Replicates 2. CCCCCOc1ccc(-c2ccc(-c3ccc(C(=O)N[C@H]4C[C@@H](O)[C@@H](O)NC(=O)[C@@H]5[C@@H](O)[C@@H](C)CN5C(=O)[C@H]([C@@H](C)O)NC(=O)[C@H]([C@H](O)[C@@H](O)c5ccc(O)cc5)NC(=O)[C@@H]5C[C@@H](O)CN5C(=O)[C@H]([C@@H](C)O)NC4=O)cc3)cc2)cc1 [Anidulafungin] ({pTerphenylCO(4''-OnC5H11)}-[Orn(4R-OH,5R-OH)]T[Hyp][hTyr(3S-OH,4S-OH)]T[Pro(3S-OH,4S-Me)]; lactam 1-C) 0.06

Give recorded [meropenem] (mg/L) Replicates 2. COc1ccnc(C[S+]([O-])c2nc3cc(OC(F)F)ccc3[nH]2)c1OC (centres unmarked) 0.01

Give recorded [meropenem] (mg/L) Replicates 2. CC[C@H](C)C[C@H](C)CCCCCCCCC(=O)N[C@H]1C[C@@H](O)[C@@H](NCCN)NC(=O)[C@@H]2[C@@H](O)CCN2C(=O)[C@H]([C@H](O)CCN)NC(=O)[C@H]([C@H](O)[C@@H](O)c2ccc(O)cc2)NC(=O)[C@@H]2C[C@@H](O)CN2C(=O)[C@H]([C@@H](C)O)NC1=O 0.06

Give recorded [meropenem] (mg/L) Replicates 2. [Ca+2].[Cl-].[Cl-] -0.04

Give recorded [meropenem] (mg/L) Replicates 2. CCCC(CCC)C(=O)[O-].[Na+] -0.10

Give recorded [meropenem] (mg/L) Replicates 2. O=C1NC(=O)C(c2ccccc2)(c2ccccc2)N1 -0.11

Give recorded [meropenem] (mg/L) Replicates 2. C=CC[C@@H]1/C=C(\C)C[C@H](C)C[C@H](OC)[C@H]2O[C@@](O)(C(=O)C(=O)N3CCCC[C@H]3C(=O)O[C@H](/C(C)=C/[C@@H]3CC[C@@H](O)[C@H](OC)C3)[C@H](C)[C@@H](O)CC1=O)[C@H](C)C[C@@H]2OC.O -0.06

Give recorded [meropenem] (mg/L) Replicates 2. Cc1ncc2n1-c1ccc(Cl)cc1C(c1ccccc1F)=NC2 -0.09

---

# Target Of Assay: P99 beta-lactamase (class C) (Enterobacter cloacae, UniProt P05364)
# Sequence (P05364 21-381): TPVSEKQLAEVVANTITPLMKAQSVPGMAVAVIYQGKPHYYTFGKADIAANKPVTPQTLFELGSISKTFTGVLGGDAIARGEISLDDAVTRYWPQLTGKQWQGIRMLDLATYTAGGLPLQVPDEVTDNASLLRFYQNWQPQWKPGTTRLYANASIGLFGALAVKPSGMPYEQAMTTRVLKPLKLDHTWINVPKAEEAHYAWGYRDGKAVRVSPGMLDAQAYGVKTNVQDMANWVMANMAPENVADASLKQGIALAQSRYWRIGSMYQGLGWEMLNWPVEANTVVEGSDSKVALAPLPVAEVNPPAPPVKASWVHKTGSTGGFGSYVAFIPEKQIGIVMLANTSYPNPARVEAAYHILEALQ
# Type: biochemical
# Condition Parameters: nitrocefin reporter
Measured Property: hydrolysis rate symbol, (Vmax/V0)-1

Solved cases below.
Cn1nnnc1SCC1=C(C(=O)O)N2C(=O)[C@@H](NC(=O)[C@H](O)c3ccccc3)[C@H]2SC1 : ++ (1-10)
CO/N=C(\C(=O)N[C@@H]1C(=O)N2C(C(=O)O)=C(CSc3nc(=O)c(O)nn3C)CS[C@H]12)c1csc(N)n1 : +++ (10-100)
CC1(C)S[C@@H]2[C@H](NC(=O)[C@H](C(=O)O)c3ccsc3)C(=O)N2[C@H]1C(=O)O : ++++ (>100)
C[C@@H](O)[C@H]1C(=O)N2C(C(=O)O)=C(S[C@@H]3CN[C@H](C(=O)N(C)C)C3)[C@H](C)[C@H]12 : +++ (10-100)
CO/N=C(\C(=O)N[C@@H]1C(=O)N2C(C(=O)O)=C(COC(N)=O)CS[C@H]12)c1ccco1 : ++++ (>100)

Give recorded hydrolysis rate symbol, (Vmax/V0)-1. CO/N=C(\C(=O)N[C@@H]1C(=O)N2C(C(=O)O)=C(COC(C)=O)CS[C@H]12)c1csc(N)n1 ++++ (>100)

Give recorded hydrolysis rate symbol, (Vmax/V0)-1. Cc1onc(-c2ccccc2)c1C(=O)N[C@@H]1C(=O)N2[C@@H]1SC(C)(C)[C@@H]2C(=O)O ++++ (>100)

Give recorded hydrolysis rate symbol, (Vmax/V0)-1. CC1(C)S[C@@H]2[C@H](NC(=O)[C@H](N)c3ccccc3)C(=O)N2[C@H]1C(=O)O ++ (1-10)

---

Exercise: state measured [Meropenem] Replicate 4 for each of the compounds provided.
# Target Of Assay: beta-lactamase class D OXA-48 (Klebsiella pneumoniae)
# Assay type: biochemical
# Condition Parameters: Meropenem 1.2 mg/L, second β-lactam 10.0 mg/L (8.4 times excess), replicate 4
Just the number in mg/L, nothing appended.

Give recorded [Meropenem] Replicate 4. Cc1onc(-c2ccccc2)c1C(=O)N[C@@H]1C(=O)N2[C@@H]1SC(C)(C)[C@@H]2C(=O)O 1.4

Give recorded [Meropenem] Replicate 4. C[C@@H](O)[C@H]1C(=O)N2C(C(=O)O)=C(S[C@@H]3CN[C@H](C(=O)N(C)C)C3)[C@H](C)[C@H]12 1.3

Give recorded [Meropenem] Replicate 4. CO/N=C(\C(=O)N[C@@H]1C(=O)N2C(C(=O)O)=C(COC(C)=O)CS[C@H]12)c1csc(N)n1 1.3

Give recorded [Meropenem] Replicate 4. Cn1nnnc1SCC1=C(C(=O)O)N2C(=O)[C@@H](NC(=O)[C@H](O)c3ccccc3)[C@H]2SC1 1.4

Give recorded [Meropenem] Replicate 4. CC1(C)S[C@@H]2[C@H](NC(=O)[C@H](N)c3ccccc3)C(=O)N2[C@H]1C(=O)O 1.3

Give recorded [Meropenem] Replicate 4. CO/N=C(\C(=O)N[C@@H]1C(=O)N2C(C(=O)O)=C(COC(N)=O)CS[C@H]12)c1ccco1 1.2

Give recorded [Meropenem] Replicate 4. CC(C)(O/N=C(\C(=O)N[C@@H]1C(=O)N2C(C(=O)[O-])=C(C[n+]3ccccc3)CS[C@H]12)c1csc(N)n1)C(=O)O 1.3

Give recorded [Meropenem] Replicate 4. CO/N=C(\C(=O)N[C@@H]1C(=O)N2C(C(=O)O)=C(CSc3nc(=O)c(O)nn3C)CS[C@H]12)c1csc(N)n1 1.3

Give recorded [Meropenem] Replicate 4. CC1(C)S[C@@H]2[C@H](NC(=O)[C@H](C(=O)O)c3ccsc3)C(=O)N2[C@H]1C(=O)O 1.3

---

# Target Of Assay: beta-lactamase class D OXA-48 (Klebsiella pneumoniae, UniProt Q6XEC0)
# Sequence (Q6XEC0 23-265 limits assumed): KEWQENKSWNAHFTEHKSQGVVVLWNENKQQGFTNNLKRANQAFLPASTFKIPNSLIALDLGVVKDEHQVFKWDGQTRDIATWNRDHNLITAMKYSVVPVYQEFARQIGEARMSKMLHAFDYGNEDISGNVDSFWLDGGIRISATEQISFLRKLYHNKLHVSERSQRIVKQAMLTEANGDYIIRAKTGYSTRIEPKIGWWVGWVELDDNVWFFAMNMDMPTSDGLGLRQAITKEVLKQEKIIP
# Format: biochemical
# Condition Parameters: Meropenem 20.0 mg/L, second β-lactam 200.0 mg/L (10 times excess), average of 5 replicates
Measured Property: Accuracy <> (average) (%)
Just the number in %, nothing appended.

Give recorded Accuracy <> (average). CO/N=C(\C(=O)N[C@@H]1C(=O)N2C(C(=O)O)=C(COC(N)=O)CS[C@H]12)c1ccco1 98

Give recorded Accuracy <> (average). CC1(C)S[C@@H]2[C@H](NC(=O)[C@H](N)c3ccccc3)C(=O)N2[C@H]1C(=O)O 95

Give recorded Accuracy <> (average). CO/N=C(\C(=O)N[C@@H]1C(=O)N2C(C(=O)O)=C(COC(C)=O)CS[C@H]12)c1csc(N)n1 92
